# SYSTEM NAME: UniProt:P11229
# METHOD SUMMARY: Positive allosteric modulation of human M1 receptor expressed in CHO cells assessed as increase in acetylcholine-induced calcium mobilization pretreated for 2.5 mins followed by acetylcholine addition and measured after 1 min by Fluo-4-AM dye based assay
# Assay type: functional, cell-based
RECORDED METRIC: %max (%)

Cn1ccc(-c2ccc(Cc3cc(C(=O)N[C@@H]4CCCC[C@H]4O)nc4c3ccn4C)cn2)n1    79
Cn1ccc(-c2ccc(Cc3cc(C(=O)N[C@@H]4CCOC[C@H]4O)nc4c3ccn4C)cc2)n1    83
Cn1cc(-c2ccc(Cc3cc(C(=O)NC4CCOCC4)nc4c3ccn4C)cn2)cn1    84
Cn1ccc2c(Cc3ccc(-c4nccs4)cc3)cc(C(=O)N[C@@H]3CCOC[C@H]3O)nc21    80
Cn1ccc(-c2ccc(Cc3cc(C(=O)NC4CCOCC4)nc4c3ccn4C)cc2)n1    87
Cn1ccc(-c2ccc(Cc3cc(C(=O)N[C@@H]4CCCC[C@H]4O)nc4c3ccn4C)cc2)n1    84

----------
# Test system: P-gp
# METHOD SUMMARY: Substrate activity at P-gp (unknown origin) assessed as apparent permeability
# Format: ADME
# EXPERIMENTAL CONDITIONS: human, not told
RECORDED METRIC: Papp (×10⁻⁶ cm/s)
Express it in ×10⁻⁶ cm/s; write the number only.

Dear colleague, I am looking for the recorded Papp of the following molecule: `Cn1cc(-c2ccc(Cc3cc(C(=O)NC4CCOCC4)nc4c3ccn4C)cn2)cn1` 12

----------
# SYSTEM NAME: Muscarinic acetylcholine receptor M1 (Homo sapiens, UniProt P11229)
# Sequence (P11229 whole entry): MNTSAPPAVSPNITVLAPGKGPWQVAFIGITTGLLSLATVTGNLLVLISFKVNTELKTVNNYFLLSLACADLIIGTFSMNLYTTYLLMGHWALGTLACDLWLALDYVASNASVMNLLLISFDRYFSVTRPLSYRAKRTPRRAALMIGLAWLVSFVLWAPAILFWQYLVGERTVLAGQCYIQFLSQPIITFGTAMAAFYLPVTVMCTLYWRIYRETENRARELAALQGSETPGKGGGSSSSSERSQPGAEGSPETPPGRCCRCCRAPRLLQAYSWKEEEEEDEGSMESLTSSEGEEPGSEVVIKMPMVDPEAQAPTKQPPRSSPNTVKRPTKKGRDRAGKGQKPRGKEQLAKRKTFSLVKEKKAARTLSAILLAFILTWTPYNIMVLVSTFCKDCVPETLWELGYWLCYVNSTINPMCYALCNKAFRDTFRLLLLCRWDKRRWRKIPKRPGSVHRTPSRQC
# METHOD SUMMARY: Positive allosteric modulation of human M1 receptor expressed in CHO cells assessed as increase in acetylcholine-induced calcium mobilization pretreated for 2.5 mins followed by acetylcholine addition and measured after 1 min by Fluo-4-AM dye based assay
# Assay type: functional, cell-based
pEC50: −log10 of the molar value.
RECORDED METRIC: pEC50

A selection of reference data follows.
Cn1ccc(-c2ccc(Cc3cc(C(=O)N[C@@H]4CCCC[C@H]4O)nc4c3ccn4C)cn2)n1    6.92
Cn1ccc(-c2ccc(Cc3cc(C(=O)N[C@@H]4CCCC[C@H]4O)nc4c3ccn4C)cc2)n1    6.74
Cn1ccc2c(Cc3ccc(-c4nccs4)cc3)cc(C(=O)N[C@@H]3CCOC[C@H]3O)nc21    7.05

(A) Cn1ccc(-c2ccc(Cc3cc(C(=O)N[C@@H]4CCOC[C@H]4O)nc4c3ccn4C)cc2)n1
(B) Cn1ccc(-c2ccc(Cc3cc(C(=O)NC4CCOCC4)nc4c3ccn4C)cc2)n1
Short answer wanted: higher pEC50, A or B ? Respond with the label that goes with your answer. A

----------
# SYSTEM NAME: Muscarinic acetylcholine receptor M1 (Rattus norvegicus, UniProt P08482)
# Sequence (P08482 whole entry): as the sequence (P11229 whole entry) above, with A5V, T254S, P309S, R320K, A337G, I413V counted along it
# METHOD SUMMARY: Positive allosteric modulation of rat M1 receptor expressed in CHO cells assessed as increase in acetylcholine-induced calcium mobilization pretreated for 2.5 mins followed by acetylcholine addition and measured after 1 min by Fluo-4-AM dye based assay
# Format: functional, cell-based
# EXPERIMENTAL CONDITIONS: read-out: EC50
RECORDED METRIC: EC50 (nM)

Cn1ccc(-c2ccc(Cc3cc(C(=O)N[C@@H]4CCOC[C@H]4O)nc4c3ccn4C)cc2)n1    40
Cn1ccc2c(Cc3ccc(-n4cccn4)cc3)cc(C(=O)NC3CCOCC3)nc21    490
Cn1ccc2c(Cc3ccc(-c4nccs4)cc3)cc(C(=O)N[C@@H]3CCCC[C@H]3O)nc21    360
Cn1ccc(-c2ccc(Cc3cc(C(=O)N[C@@H]4CCCC[C@H]4O)nc4c3ccn4C)cc2)n1    180
Cn1ccc2c(Cc3ccc(-c4cscn4)cc3)cc(C(=O)NC3CCOCC3)nc21    760
Cn1cc(-c2ccc(Cc3cc(C(=O)NC4CCOCC4)nc4c3ccn4C)cn2)cn1    230
Cn1ccc2c(Cc3ccc(-c4nccs4)cc3)cc(C(=O)NC3CCOCC3)nc21    1740
Cn1ccc(-c2ccc(Cc3cc(C(=O)NC[C@@H]4CCCO4)nc4c3ccn4C)cn2)n1    490

(I) Cn1cc(-c2ccc(Cc3cc(C(=O)N[C@@H]4CCCC[C@H]4O)nc4c3ccn4C)cn2)cn1
(II) Cn1ccc(-c2ccc(Cc3cc(C(=O)N[C@@H]4CCOC[C@H]4O)nc4c3ccn4C)cn2)n1
Short answer wanted: higher EC50, I or II ? Respond with the label that goes with your answer. I
(I: 40 nM, II: 14 nM)

// provenance: ChEMBL document CHEMBL4229572
